# tested system: UPR counterscreen luciferase reporter, luminescence
# procedure details: luciferase reporter activation, UPR counterscreen line – cell-based, luminescence, counter-screen for adaptive UPR activator project, dose response (AID 489027)
Activity calls are given as the source filed them. How the calls were made is not given here.
Outcome field: choose from active, inactive

The following compounds have reported results that may help.
Exercise: How was `OCCNc1nc(Nc2ccc(Br)cc2)nc2ccccc12` classified in this test?
Key: active

Exercise: Called result for COC(=O)C1C(O)=C(C=Nc2cccc3ccccc23)C(=O)CC1(C)C (stereo unspecified)
Key: active

Exercise: Query: recorded result category for `Cc1cc(NC(=O)c2cc(-c3ccncc3)nc3c(C)cccc23)no1` in this test
Key: active

Exercise: # outcome recorded in this test, key = `Cc1ccc(-c2nc(N/N=C/c3cccc([N+](=O)[O-])c3)c3ccccc3n2)cc1`
Key: inactive

Exercise: Please let me know the test result on file for `COc1ccc(C(=O)O/N=C/c2c(C(F)(F)F)nn(C)c2SCc2ccccc2Cl)cc1` .
Key: inactive

---
Exercise: I would be grateful if you could indicate the recorded call for COc1ccc(C2CC(c3c(-c4ccccc4)c4cc(Cl)ccc4[nH]c3=O)=NN2S(C)(=O)=O)cc1 (stereo unspecified) .
Key: inactive

Exercise: In this assay, the call recorded for `O=C1NC(=O)N(Cc2ccccc2)C(=O)/C1=C\c1ccco1` was what?
Key: inactive

* * *

# tested system: UPR counterscreen luciferase reporter, luminescence
# procedure details: luciferase reporter activation, UPR counterscreen line – cell-based, luminescence, counter-screen for adaptive UPR activator project, dose response (AID 489027)
Calls of active or inactive are those of the source. No rule for the calls is given here.
Parameter call: string, one of yes (1) = active, no (0) = inactive

Exercise: Please let me know the test result on file for `COc1ccc2nc(NC(=O)c3cccc(-c4cc5ccccc5oc4=O)c3)sc2c1` .
Key: no (0)

Exercise: # lookup: test call for `CCOc1ccc(C(=O)Nc2ccc(NC(=O)c3ccco3)c(Cl)c2)cc1Cl`
Key: yes (1)

Further cases:
Exercise: For this compound, state the assay outcome: `CCOc1ccc(NC(=S)NC(=O)/C=C/c2ccc(C)cc2)c([N+](=O)[O-])c1`
Key: no (0)

Exercise: State the result this test recorded for `O=C1c2ccccc2C(=O)N1/N=C/c1ccc(O)c(O)c1` .
Key: no (0)

* * *

Provide the recorded EC50 for the entries that follow.
# tested system: UPR counterscreen luciferase reporter, luminescence
# procedure details: luciferase reporter activation, UPR counterscreen line – cell-based, luminescence, counter-screen for adaptive UPR activator project, dose response (AID 489027)
Active and inactive are the calls of the source. The rule behind the calls is not given here.

Exercise: Given `O=C(Nc1cccc(-c2nc3cccnc3s2)c1)C1c2ccccc2Oc2ccccc21` , state its recorded EC50.
Key: 4.35 µM

Exercise: // lookup EC50 for `FC(F)(F)c1nnc2c(Sc3ccc(Cl)cc3)nc3ccccc3n12`
Key: 4.67 µM

Exercise: Reported EC50, compound `COc1ccc(N2CCN(Cc3nc(N)nc(Nc4ccc(C)c(Cl)c4)n3)CC2)cc1` : ____
Key: > 80 µM (inactive)

Now turn to the next compound.
Exercise: Consider the compound `O=C1NC(=O)N(Cc2ccc(F)cc2)C(=O)/C1=C/c1cccs1` and give its measured EC50.
Key: 13.8 µM

* * *

# tested system: UPR counterscreen luciferase reporter, luminescence
# procedure details: luciferase reporter activation, UPR counterscreen line – cell-based, luminescence, counter-screen for adaptive UPR activator project, dose response (AID 489027)
The source made the active and inactive calls. How the calls were made is not given here.
# valid calls are 1 for active, 0 for inactive; nothing else

Would you please look over these solved cases?
Exercise: What was the test verdict on `CC(C)Cn1c2c(c(=O)[nH]c1=O)C(C(F)(F)F)(C(F)(F)F)N=C(CCC1CCCCC1)N2` ?
Key: 0

Exercise: Which outcome was assigned to `Cc1ccc2c(c1)C(=O)C(=O)N2Cc1ccc(C(F)(F)F)cc1` in this test?
Key: 0

Exercise: Recorded test outcome, item `COc1ccc(N=c2oc3ccc(OC)cc3cc2-c2nc3ccccc3[nH]2)cc1`
Key: 1

Exercise: Could you please tell me the result logged for `CCOc1ccccc1CNC(=O)C1CCN(c2nnc(C)c3c(C)n(-c4ccc(C)cc4)nc23)CC1` in this assay?
Key: 0

Exercise: Which result was noted for this compound in the test: CCCCNc1c(-c2ccc(SC(C)CC)cc2)nc2cnccn12 (stereo unspecified)
Key: 1

Exercise: Which outcome was assigned to `Cc1nc(NC(=O)CSc2ccc(-c3nc4ccccc4[nH]3)cn2)sc1C` in this test?
Key: 0

Exercise: Could you kindly confirm the outcome this assay logged for `CN(C)CC/C=C1\c2ccc(F)cc2Sc2cc(F)c(Cl)cc21` ?
Key: 0

Exercise: Could you please tell me the result logged for `COc1cc(/C=N/NC(N)=O)c(Br)cc1OCC(=O)Nc1ccccc1C` in this assay?
Key: 0

Further cases:
Exercise: Which result was noted for this compound in the test: `CCOc1cc2c3c(c1)C(C)=CC(C)(C)N3C(=O)C2=O`
Key: 0

Exercise: Record lookup: outcome of this test for `CCN=C1S/C(=C\c2cn(CC(=O)NCc3ccco3)c3ccccc23)C(=O)N1CC` ?
Key: 0

Exercise: Could you please tell me the result logged for `C/C(=N\Nc1ncnc2sc(C)c(C)c12)c1ccccn1` in this assay?
Key: 1

* * *

# tested system: UPR counterscreen luciferase reporter, luminescence
# procedure details: luciferase reporter activation, UPR counterscreen line – cell-based, luminescence, counter-screen for adaptive UPR activator project, dose response (AID 489027)
The source made the active and inactive calls. The rule behind the calls is not given here.
Please respond with reported EC50 for every item in the list.

Exercise: Param readout = EC50; param system = UPR counterscreen luciferase reporter, luminescence; param query = `COc1ccc(-c2sc3ccccc3c2-c2ccc(OCCN(C)C)cc2)cc1` ; response: value
Key: 13.3 µM

Exercise: Query EC50 on UPR counterscreen luciferase reporter, luminescence for `Cc1ccc2nc(-c3ccc(NC(=S)NC4CC(C)(C)NC(C)(C)C4)cc3)sc2c1`
Key: 9.04 µM

Exercise: Request - read-out EC50 | tested on UPR counterscreen luciferase reporter, luminescence | molecule `CCOC(=O)c1c(NC(=O)CSc2nnc3c(n2)[nH]c2ccc(F)cc23)sc(C(C)=O)c1C`
Key: 17.4 µM

Exercise: # query: EC50 | item `CN(C)c1ccc(/C=C/[N+](=O)[O-])cc1` | system: UPR counterscreen luciferase reporter, luminescence
Key: 12.6 µM

Exercise: Under UPR counterscreen luciferase reporter, luminescence: EC50 value of NC(=O)CC(NC(=O)Cc1cccc2ccccc12)c1ccc(NCCOc2ccccc2)c([N+](=O)[O-])c1 (stereo unspecified) ?
Key: > 80 µM (inactive)

Attention now turns to another entry.
Exercise: Item `CC1(C)CC(=O)C(C=Nc2ccc(C(=O)c3ccccc3)cc2N=CC2=C(O)CC(C)(C)CC2=O)=C(O)C1` with UPR counterscreen luciferase reporter, luminescence - EC50?
Key: 9.78 µM

* * *

# tested system: UPR counterscreen luciferase reporter, luminescence
# procedure details: luciferase reporter activation, UPR counterscreen line – cell-based, luminescence, counter-screen for adaptive UPR activator project, dose response (AID 489027)
Active and inactive are the calls of the source. The rule behind the calls is not given here.
Pick one: active, inactive

Exercise: How did this test come out for `Cn1c(-c2ccccc2)c(/C=N/NC(=O)c2ccc(O)cc2)c2ccccc21` ?
Key: inactive

* * *

# tested system: UPR counterscreen luciferase reporter, luminescence
# procedure details: luciferase reporter activation, UPR counterscreen line – cell-based, luminescence, counter-screen for adaptive UPR activator project, dose response (AID 489027)
Active and inactive are the calls of the source. How the calls were made is not given here.
Pick from active, inactive when you respond.

Example entries and their recorded answers appear below.
Exercise: Hi, sorry to bother you, what did the test record for `COc1cc2[nH]c3c(N4CCN(c5ccc(Cl)cc5)CC4)ncnc3c2cc1OC` ?
Key: inactive

Exercise: Per the assay record, what outcome was assigned to `CCOC(=O)c1cc(-c2ccccc2)sc1NC(=O)c1ccc(OC)cc1` ?
Key: inactive

Exercise: Assay outcome for `N#Cc1cc2c(nc1SCC(=O)Nc1sc3c(c1C#N)CCC3)CCCC2` : what was it?
Key: inactive

---
Exercise: State the result this test recorded for `O=C(C[n+]1ccc(-c2cc(C(=O)Nc3cccc(C(F)(F)F)c3)c3ccccc3n2)cc1)c1cccc([N+](=O)[O-])c1` .
Key: active

Exercise: Tell me the assay call for `COc1ccc(C(=O)/C=C/c2ccc(O)cc2)c(O)c1C/C=C(\C)CCC=C(C)C` please.
Key: active

Exercise: Call for entry CC1(C)C[C@H](O)[C@]2(CO)[C@H](O)C[C@]3(C)C(=CCC4[C@@]5(C)CC[C@H](O)C(C)(C)C5CC[C@]43C)[C@@H]2C1 (some centres not stated) :
Key: inactive

* * *

# tested system: UPR counterscreen luciferase reporter, luminescence
# procedure details: luciferase reporter activation, UPR counterscreen line – cell-based, luminescence, counter-screen for adaptive UPR activator project, dose response (AID 489027)
Activity calls are given as the source filed them. How the calls were made is not given here.
Bench note: report the call from active, inactive

Below are worked cases with known answers.
Exercise: What is the recorded call for this compound in the test? `COc1ccccc1NC(=O)c1cc2c(CO)cnc(C)c2oc1=Nc1ccccc1`
Key: active

Exercise: In this assay, the call recorded for `CCN(CC)c1ccc(N=Cc2c(O)n(Cc3ccccc3)c(=O)[nH]c2=O)cc1` was what?
Key: inactive

Exercise: What classification did `CC(C)C(=O)N(c1cc2sc(=O)oc2c2ccccc12)S(=O)(=O)c1cccs1` end up with in this test?
Key: active

Exercise: Hi team, can someone confirm the assay call for `CCOc1cc(CNC(C)(C)CO)cc(Br)c1OCc1ccc(Cl)cc1Cl` ?
Key: inactive

Now consider the entry below.
Exercise: Recorded test call requested for `COc1ccc(-c2c(-c3cc(OC)cc(OC)c3)n(C)c3ccc(-c4cnc(N)nc4)cc23)cc1`
Key: inactive
